# System: TK-10
# assay_overview: NCI tumour cell line growth inhibition, 48 h
Active and inactive are the calls of the source. No stated cut-off is given here; in the data, active = GI50 up to about 1.1 µM and inactive = higher. *1 amine or outer side, *2 acyl side, *3 side chain or, on linkers, in order; H or OH if unused. Where a SMILES comes first, the peptide text is derived from it. Bridges are numbered along the chain shown (N, C = ends). Roman numbers before positions name the chains, in order. [ ]: non-standard residue; d: D form. Actinocin(1to9) = Cc1c2oc3c(C)ccc(C(=O)[*:2])c3nc-2c(C(=O)[*:1])c(N)c1=O; NMeV = CN[CH](C(=O)O)C(C)C; Sar = CNCC(=O)O
Your response should consist of one outcome taken from true = active, false = inactive

Below, 6 compounds whose answers are already recorded.
{"compound": "O=C(NCCOC(=O)CCCCCCCCC(=O)OCCNC(=O)NC(=O)c1cn(Cc2ccccc2)c(=O)[nH]c1=O)NC(=O)c1cn(Cc2ccccc2)c(=O)[nH]c1=O", "assigned_label": "false"}
{"compound": "CC(C)(/N=N/C(C)(C)C(=O)NCCO)C(=O)NCCO", "assigned_label": "false"}
{"compound": "[O-][S+]1SC(=S)C2C=CC=NC21 (centres undefined)", "assigned_label": "false"}
{"compound": "CN=S(=O)(C[C@]1(O)CC2OC1C1OC(C)(C)OC21)c1ccccc1 (some centres undefined)", "assigned_label": "false"}
{"compound": "COc1ccc(CC2NC(=O)C(NC(=O)c3c4nc5c(C(=O)NC6C(=O)NC(Cc7ccc(OC)cc7)C(=O)N7CCCC7C(=O)N(C)CC(=O)N(C)C(C(C)C)C(=O)OC6C)ccc(C)c5oc-4c(C)c(=O)c3N)C(C)OC(=O)C(C(C)C)N(C)C(=O)CN(C)C(=O)C3CCCN3C2=O)cc1 (centres undefined) (I: TY(Me)P[Sar][NMeV] / II: TY(Me)P[Sar][NMeV]; ester I:1-I:C, II:1-II:C; linker I:N-II:N via Actinocin(1to9); configuration not given here)", "assigned_label": "true"}
{"compound": "O=C1c2n[nH]nc2C(=O)c2n[nH]nc21", "assigned_label": "false"}

Incoming: # outcome recorded in this test, key = COC1=C(Br)[C@H](O)[C@@]2(C=C1Br)CC(C(=O)NCCCOc1c(Br)cc(C(O)CNC(C)=O)cc1Br)=NO2 (some centres undefined)
Outgoing: false

Incoming: # outcome recorded in this test, key = Cc1cccc(C)c1NC(=O)C(=O)C1C(=O)N(c2ccccc2)N=C1N (centres undefined)
Outgoing: false

Incoming: # outcome recorded in this test, key = `Cn1c(=O)c2c(nc(C(=N)SCC(=O)O)n2C)n(C)c1=O`
Outgoing: false

Incoming: # outcome recorded in this test, key = `CCC(=O)C1(N2CCOCC2)CCN(CCCC(=O)c2ccc(F)cc2)CC1`
Outgoing: false

Incoming: # outcome recorded in this test, key = CC(C)CCCC(C)[C@H]1CCC2[C@@H]3CCC4Nc5c(cnn5-c5ccccc5)C[C@]4(C)C3CC[C@@]21C (some centres undefined)
Outgoing: false

Incoming: # outcome recorded in this test, key = `CCOC(=O)C1S(=O)(=O)OCCOS1(=O)=O`
Outgoing: false

Incoming: # outcome recorded in this test, key = CC/C=C\C/C=C\C/C=C\CCCCCCCC(=O)OCC(O)CO (centres undefined)
Outgoing: false

Incoming: # outcome recorded in this test, key = N#Cc1ccccc1NC(=O)C(=O)C(C(=O)c1ccccc1-c1ccccc1)C1OC(=O)c2ccccc21 (centres undefined)
Outgoing: false

Incoming: # outcome recorded in this test, key = CC1=C(O)C(=O)C=C2C1=CC=C1[C@@]2(C)CC[C@@]2(C)C3C[C@@H](C)C(=O)[C@@H](O)[C@]3(C)CC[C@]12C (some centres undefined)
Outgoing: false

Incoming: # outcome recorded in this test, key = `O=C(O)c1ccccc1-c1ccccc1C(=O)Nc1ccc2c(c1)Cc1cc(F)ccc1-2`
Outgoing: false

FYI, the data here is from ChEMBL document CHEMBL1201862.
